Target: Recombinant STAT6 protein (STAT6(W123-T658)) (Homo sapiens, UniProt P42226)
Construct: STAT6(W123-T658)
Sequence (P42226 123-658): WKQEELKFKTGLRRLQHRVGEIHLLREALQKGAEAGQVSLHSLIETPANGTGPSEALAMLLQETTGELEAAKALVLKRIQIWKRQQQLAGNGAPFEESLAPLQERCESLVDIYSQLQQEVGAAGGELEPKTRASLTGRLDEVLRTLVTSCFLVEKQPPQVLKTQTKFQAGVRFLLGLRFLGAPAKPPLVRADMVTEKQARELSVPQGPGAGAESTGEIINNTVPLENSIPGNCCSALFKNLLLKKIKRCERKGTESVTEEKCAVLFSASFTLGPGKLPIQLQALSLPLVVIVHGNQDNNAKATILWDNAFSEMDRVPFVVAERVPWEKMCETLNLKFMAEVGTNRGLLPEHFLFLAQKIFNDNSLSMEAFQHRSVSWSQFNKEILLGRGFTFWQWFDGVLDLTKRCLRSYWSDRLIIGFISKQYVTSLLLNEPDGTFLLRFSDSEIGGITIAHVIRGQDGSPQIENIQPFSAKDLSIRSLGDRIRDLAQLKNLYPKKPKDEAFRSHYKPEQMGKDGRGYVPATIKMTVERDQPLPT
Experiment: STAT6 Fluorescence Polarization (FP) Assay
Settings: STAT6(W123-T658) 250 nM, probe 5-FAM-ApYKPFQDLI-NH2 2 nM, 45-minute incubation
Method: STAT6 Fluorescence Polarization (FP) Assay An FP assay was developed to determine IC50 values for test substances. […] Reaction components were mixed, and FP was measured after 45-minute incubation at room temperature using a Tecan Spark multimode plate reader. FP signal (mP) was plotted against the log concentration of the test substances and IC50 values were calculated by nonlinear regression analysis using GraphPad Prism software. […]
Overview of recorded IC50 for various compounds
measured.quantity: IC50

[[record]]
compound = "Cc1ccc2c(c1)OCCN2C(=O)[C@@H]1CC[C@@H]2C[C@H]3C[C@H]3C[C@H](NC(=O)c3cc4cc(C(F)P(=O)(O)O)ccc4s3)C(=O)N21 (stereo partly drawn) [Example 383]"
value = "0.3 to 3 µM"

[[record]]
compound = "O=C(N[C@H]1C[C@H]2C[C@H]2C[C@H]2CC[C@@H](C(=O)N3CC(c4cnccc4O)C3)N2C1=O)c1cc2cc(CP(=O)(O)O)ccc2s1 [Example 294]"
value = "3 to 30 µM"

[[record]]
compound = "C[C@]12CC(NC(=O)c3cc4cc(C(F)(F)P(=O)(O)O)ccc4s3)C(=O)N3[C@H](CC[C@H]3C(=O)N3CC(c4cccnc4)C3)[C@H]1C2 (stereo partly drawn) [Compound 37]"
value = "3 to 30 µM"


###

Biological target: UniProt:P42226
Experiment: MSD-pSTAT-PBMC Assay (pSTAT6, IL-4 stimulated)
Conditions: compound 3 hrs, then 1 ng/mL IL-4 for 10 min
Protocol: Cryopreserved Peripheral Blood Mononuclear Cells (PBMC) are from AllCells. Recombinant Human IL-4 and IL-6 are from Peprotech. […] Cryopreserved PBMCs were thawed out and allowed to recover overnight in IMDM+10% heat-inactivated FBS prior to plating 50,000 (STAT3) or 25,000 (STAT6) cells per well in 96-well U-bottom tissue culture plates. […] Assay plates were then washed and 150 μL of 1× Read Buffer-T (MSD) was added to each well prior to reading on an SQ120 MSD Plate Reader. […]
pIC50: −log10 of the molar value.
measured.quantity: pIC50

[[record]]
compound = "CC(C)(C)C(=O)OCOP(=O)(OCOC(=O)C(C)(C)C)C(F)(F)c1ccc2sc(C(=O)N[C@H]3C[C@H]4C[C@H]4C[C@H]4CC[C@@H](C(=O)NC5CN(C(=O)CCC(F)(F)F)C5)N4C3=O)cc2c1 [Compound 215]"
measured_quantity = "pIC50"
value = "6.00 to 7.00"

[[record]]
compound = "CC(C)CC(=O)SCCOP(=O)(OCCSC(=O)CC(C)C)C(F)(F)c1ccc2sc(C(=O)N[C@H]3C[C@H]4C[C@H]4C[C@H]4CC[C@@H](C(=O)N5CC(c6ncccn6)C5)N4C3=O)cc2c1 [Compound 225]"
measured_quantity = "pIC50"
value = "5.52 to 6.00"


###

Target: Recombinant STAT3 protein (STAT3(G127-I722)) (Homo sapiens)
Construct: STAT3(G127-I722)
Experiment: STAT3 Fluorescence Polarization (FP) Assay
Details: STAT3(G127-I722) 25 nM, probe 5-FAM-GpYLPQTV-NH2 2 nM, 45-minute incubation
pIC50: −log10 of the molar value.
measured.quantity: pIC50

[[record]]
compound = "O=C(N[C@H]1C[C@H]2C[C@H]2C[C@H]2CC[C@@H](C(=O)N3CC(N4CCS(=O)(=O)CC4)C3)N2C1=O)c1cc2cc(C(F)P(=O)(O)O)ccc2s1 (some centres unmarked)"
value = "6.00 to 7.00"

[[record]]
compound = "O=C(N[C@H]1C[C@@H]2C[C@@H]2C[C@H]2CC[C@@H](C(=O)N3CC[C@@H](N4CCOCC4)C3)N2C1=O)c1cc2cc(C(F)(F)P(=O)(O)O)ccc2s1"
value = "6.00 to 7.00"

[[record]]
compound = "O=C(N[C@H]1C[C@H]2C[C@H]2C[C@H]2CC[C@@H](C(=O)N[C@H]3CN(c4cccnc4)C[C@@H]3F)N2C1=O)c1cc2cc(C(F)(F)P(=O)(O)O)ccc2s1"
value = "> 7.00"

[[record]]
compound = "CC(=O)N1CC(NC(=O)[C@@H]2CC[C@@H]3C[C@H]4C[C@H]4C[C@H](NC(=O)c4cc5cc(C(F)P(=O)(O)O)ccc5s4)C(=O)N32)C(F)(F)C1 (some centres unmarked)"
value = "6.00 to 7.00"

[[record]]
compound = "Cn1cc(C2CN(C(=O)[C@@H]3CC[C@@H]4C[C@H]5C[C@H]5C[C@H](NC(=O)c5cc6cc(C(F)(F)P(=O)(O)O)ccc6s5)C(=O)N43)C2)cn1"
value = "> 7.00"

[[record]]
compound = "O=C(N[C@H]1C[C@@H]2C[C@@H]2C[C@H]2CC[C@@H](C(=O)N3CC(C(=O)N4CCOCC4)C3)N2C1=O)c1cc2cc(C(F)(F)P(=O)(O)O)ccc2s1"
value = "> 7.00"

[[record]]
compound = "O=C(N[C@H]1C[C@H]2C[C@H]2C[C@H]2CC[C@@H](C(=O)N3CC(n4ccnc4)C3)N2C1=O)c1ccc2ccc(C(F)(F)P(=O)(O)O)cc2c1"
value = "> 7.00"

[[record]]
compound = "Cn1cc(CC2CN(C(=O)[C@@H]3CC[C@@H]4C[C@H]5C[C@H]5C[C@H](NC(=O)c5cc6cc(CP(=O)(O)O)ccc6s5)C(=O)N43)C2)cn1"
value = "5.00 to 6.00"

[[record]]
compound = "O=C(N[C@H]1C[C@@H]2C[C@@H]2C[C@H]2CC[C@@H](C(=O)NC3CN(c4ccccn4)C3)N2C1=O)c1cc2cc(C(F)(F)P(=O)(O)O)ccc2s1"
value = "> 7.00"

[[record]]
compound = "O=C(N[C@H]1C[C@@H]2C[C@@H]2C[C@H]2CC[C@@H](C(=O)N3CC(c4nocc4Br)C3)N2C1=O)c1cc2cc(C(F)P(=O)(O)O)ccc2s1 (some centres unmarked)"
value = "6.00 to 7.00"

[[record]]
compound = "O=C(N[C@H]1C[C@@H]2C[C@@H]2C[C@H]2CC[C@@H](C(=O)N3CCN(C(=O)[C@@H]4CCOC4)CC3)N2C1=O)c1cc2cc(C(F)(F)P(=O)(O)O)ccc2s1"
value = "6.00 to 7.00"


###

Overview of recorded IC50 for various compounds
Biological target: Recombinant STAT3 protein (STAT3(G127-I722)) (Homo sapiens, UniProt P40763)
Construct: STAT3(G127-I722)
Sequence (P40763 127-722, species assumed): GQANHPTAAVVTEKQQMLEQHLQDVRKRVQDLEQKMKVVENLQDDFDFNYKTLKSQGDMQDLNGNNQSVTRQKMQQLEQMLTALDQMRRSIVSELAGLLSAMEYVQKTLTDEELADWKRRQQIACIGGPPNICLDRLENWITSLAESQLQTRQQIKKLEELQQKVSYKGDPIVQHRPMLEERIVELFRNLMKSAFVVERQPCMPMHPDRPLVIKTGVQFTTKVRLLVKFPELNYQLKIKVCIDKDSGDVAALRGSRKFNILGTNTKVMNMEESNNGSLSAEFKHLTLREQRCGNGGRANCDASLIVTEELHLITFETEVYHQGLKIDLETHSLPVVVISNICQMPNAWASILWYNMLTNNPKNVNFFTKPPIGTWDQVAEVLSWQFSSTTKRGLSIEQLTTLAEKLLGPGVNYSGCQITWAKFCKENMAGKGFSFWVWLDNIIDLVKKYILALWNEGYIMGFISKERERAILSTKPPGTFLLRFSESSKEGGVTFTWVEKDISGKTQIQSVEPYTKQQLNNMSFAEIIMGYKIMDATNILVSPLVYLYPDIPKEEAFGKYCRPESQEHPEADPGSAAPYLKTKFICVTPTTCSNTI
Experiment: STAT3 Fluorescence Polarization (FP) Assay
Conditions: STAT3(G127-I722) 25 nM, probe 5-FAM-GpYLPQTV-NH2 2 nM, 45-minute incubation
Description: STAT3 Fluorescence Polarization (FP) Assay An FP assay was developed to determine IC50 values for test substances. […] Reaction components were mixed, and FP was measured after 45-minute incubation at room temperature using a Tecan Spark multimode plate reader. FP signal (mP) was plotted against the log concentration of the test substances and IC50 values were calculated by nonlinear regression analysis using GraphPad Prism software. […]
measured.quantity: IC50

[[record]]
compound = "O=C(N[C@H]1C[C@@H]2C[C@@H]2C[C@H]2CC[C@@H](C(=O)N3CC(c4cnccc4N4CCOCC4)C3)N2C1=O)c1cc2cc([C@@H](F)P(=O)(O)O)ccc2s1 (single isomer, unassigned) [Example 405]"
value = "< 100 nM"

[[record]]
compound = "CS(=O)(=O)CC1CN(C(=O)[C@@H]2CC[C@@H]3C[C@@H]4C[C@@H]4C[C@H](NC(=O)c4cc5cc(C(F)(F)P(=O)(O)O)ccc5s4)C(=O)N32)C1 [Compound 69]"
value = "< 100 nM"

[[record]]
compound = "NC(=O)N1CC[C@@H](NC(=O)[C@@H]2CC[C@@H]3C[C@H]4C[C@H]4C[C@H](NC(=O)c4cc5cc(C(F)(F)P(=O)(O)O)ccc5s4)C(=O)N32)C1 [Compound 118]"
value = "< 100 nM"

[[record]]
compound = "CC(=O)N1CC[C@@H]2[C@H]1CN2C(=O)[C@@H]1CC[C@@H]2C[C@H]3C[C@H]3C[C@H](NC(=O)c3cc4cc(C(F)P(=O)(O)O)ccc4s3)C(=O)N21 (stereo partly shown) [Example 290]"
value = "100 to 1000 nM"

[[record]]
compound = "O=C(N[C@H]1C[C@@H]2C[C@@H]2C[C@H]2CC[C@@H](C(=O)N3CC[C@H](C(=O)N4CCOCC4)C3)N2C1=O)c1cc2cc(C(F)(F)P(=O)(O)O)ccc2s1 (single isomer, unassigned) [Compound 99]"
value = "100 to 1000 nM"

[[record]]
compound = "C[C@@H]1COCCN1C(=O)C1CN(C(=O)[C@@H]2CC[C@@H]3C[C@H]4C[C@H]4C[C@H](NC(=O)c4cc5cc(C(F)(F)P(=O)(O)O)ccc5s4)C(=O)N32)C1 [Compound 13]"
value = "< 100 nM"

[[record]]
compound = "O=C(N[C@H]1C[C@@H]2C[C@@H]2C[C@H]2CC[C@@H](C(=O)N3CC[C@@H](C(=O)N4CCOCC4)C3)N2C1=O)c1cc2cc(C(F)(F)P(=O)(O)O)ccc2s1 (single isomer, unassigned) [Compound 98]"
value = "100 to 1000 nM"

[[record]]
compound = "Cc1nnc(C2(C)CN(C(=O)[C@@H]3CC[C@@H]4C[C@@H]5C[C@@H]5C[C@H](NC(=O)c5cc6cc(C(F)(F)P(=O)(O)O)ccc6s5)C(=O)N43)C2)o1 [Compound 82]"
value = "< 100 nM"

[[record]]
compound = "CC1(O)CCN(C2CN(C(=O)[C@@H]3CC[C@@H]4C[C@H]5C[C@H]5C[C@H](NC(=O)c5cc6cc(C(F)(F)P(=O)(O)O)ccc6s5)C(=O)N43)C2)CC1 [Compound 110]"
value = "100 to 1000 nM"

[[record]]
compound = "Cn1cnnc1C1CN(C(=O)[C@@H]2CC[C@@H]3C[C@H]4C[C@H]4C[C@H](NC(=O)c4cc5cc(C(F)P(=O)(O)O)ccc5s4)C(=O)N32)C1 (stereo partly shown) [Example 304]"
value = "< 100 nM"

